Tested on: Staphylococcus aureus 101
Assay: MIC against Staphylococcus aureus 101
Type: cell-based
Conditions: Table 2; Staphylococcus aureus 101, MRSA- and trimethoprim-resistant; clinical isolate; read-out: MIC Sa101
measured parameter: MIC (µg/mL)
One number for each entry, in µg/mL.

Below, 5 compounds whose answers are already recorded.
CCOc1cc(Cc2cnc(N)nc2N)cc(OCC)c1-c1ccc(CN(C)CCF)c(F)c1
8
CCOc1cc(Cc2cnc(N)nc2N)cc(OS(=O)(=O)C2CCOCC2)c1-c1ccc(N)c(C)c1
2
CCOc1cc(Cc2cnc(N)nc2N)cc(OCC2CC2)c1-c1ccc(OC)c(N)c1
8
CCOc1cc(Cc2cnc(N)nc2N)cc(OS(=O)(=O)N(C)C)c1-c1ccc2[nH]ccc2c1
1
CCOc1cc(Cc2cnc(N)nc2N)cc(OCC)c1-c1cccc(S(C)(=O)=O)c1
8

Dear colleague, could you send me MIC for each of the items below? Thanks.
1. CCOc1cc(Cc2cnc(N)nc2N)cc(OS(=O)(=O)N(C)C)c1-c1ccc(CN2CCOCC2)c(N)c1
2. CCOc1cc(Cc2cnc(N)nc2N)cc(OS(C)(=O)=O)c1-c1ccc(CN2CCOCC2)c(F)c1
3. CCOc1cc(Cc2cnc(N)nc2N)cc(OC2CCC(OC)C2)c1-c1ccc(O)cc1 (stereo not drawn)
4. CCOc1cc(Cc2cnc(N)nc2N)cc(OS(=O)(=O)N(C)CC)c1-c1cc(N)cc(F)c1

[A]
1. 2
2. 8
3. 8
4. 2

---

Target: purified DHFR of strain 157/4696 of Staphylococcus aureus (Staphylococcus aureus, UniProt P13955)
Sequence (P13955 whole entry): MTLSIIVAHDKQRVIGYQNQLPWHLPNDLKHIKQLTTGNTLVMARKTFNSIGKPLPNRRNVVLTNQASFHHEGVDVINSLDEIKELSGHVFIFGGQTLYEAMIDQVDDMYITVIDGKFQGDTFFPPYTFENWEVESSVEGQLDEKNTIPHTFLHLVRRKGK
Test: biochemical
What pIC50 was measured for each of the following?
Give bare numbers, as −log10 of the molar value.

Answered cases to consult:
CCOc1cc(Cc2cnc(N)nc2N)cc(OCC)c1-c1ccc(N)c(C)c1
5.82
CCOc1cc(Cc2cnc(N)nc2N)cc(OCC2CCC2)c1-c1ccc(O)cc1
6.00
CCOc1cc(Cc2cnc(N)nc2N)cc(OCC)c1-c1cc(N)cc(F)c1
5.92
CCOc1cc(Cc2cnc(N)nc2N)cc(OC2CCCC2)c1-c1cccc(N)c1
6.17
CCOc1cc(Cc2cnc(N)nc2N)cc(OCC)c1-c1ccc(OCC(N)=O)cc1
6.12
CCOc1cc(Cc2cnc(N)nc2N)cc(OCC)c1-c1ccc(F)c(N)c1
5.85

// each listed molecule needs a value for pIC50
1. CCOc1cc(Cc2cnc(N)nc2N)cc(OCC)c1-c1cccc(N(C)C)c1
2. CCOc1cc(Cc2cnc(N)nc2N)cc(OCC2CC2)c1-c1ccc(O)cc1

[A]
1. 6.10
2. 5.92

---

Hi there, I'd appreciate the recorded MIC for every entry that follows.
System: Streptococcus pneumoniae 1/1
Experiment: MIC against Streptococcus pneumoniae 1/1
Format: cell-based
Settings: Table 2; Streptococcus pneumoniae 1/1, trimethoprim- and penicillin-resistant, serotype 6; clinical isolate; read-out: MIC Sp1/1
Numbers only, in µg/mL.

CCOc1cc(Cc2cnc(N)nc2N)cc(OCC(C)(C)COC)c1-c1ccc(OC)cc1
4

Here are 4 compounds. What values of MIC were reported for them?
1. CCOc1cc(Cc2cnc(N)nc2N)cc(OCC2CCC2)c1-c1ccc(O)cc1
2. CCOc1cc(Cc2cnc(N)nc2N)cc(OS(=O)(=O)N(C)C)c1-c1ccc(O)cc1
3. CCOc1cc(Cc2cnc(N)nc2N)cc(OCC)c1-c1cccc(C=O)c1
4. CCOc1cc(Cc2cnc(N)nc2N)cc(OCC)c1-c1ccc2c(c1)CCCN2

[A]
1: 4; 2: 1; 3: 4; 4: 8

---

Could you please report measured MIC for the items listed next?
Tested on: Staphylococcus aureus 101
Experiment: MIC against Staphylococcus aureus 101
Format: cell-based
Details: Table 2; Staphylococcus aureus 101, MRSA- and trimethoprim-resistant; clinical isolate; read-out: MIC Sa101

In the examples that follow, each entry is paired with its recorded MIC.
CCOc1cc(Cc2cnc(N)nc2N)cc(OCC)c1-c1ccc(N2CC(COC)OC2=O)cc1 (racemic) [Example 04-s]
8 µg/mL
CCOc1cc(Cc2cnc(N)nc2N)cc(OCC(C)(C)C=CC#N)c1-c1cccc(N)c1 [Example 07-f]
8 µg/mL
CCCOc1cc(Cc2cnc(N)nc2N)cc(OCCC)c1-c1cccc(O)c1 [Example 52-]
8 µg/mL
CCOc1cc(Cc2cnc(N)nc2N)cc(OCC)c1-c1cccc([N+](=O)[O-])c1 [Example 02-z]
8 µg/mL
CCOc1cc(Cc2cnc(N)nc2N)cc(OS(=O)(=O)N(C)C)c1-c1ccc(N)c(F)c1 [Example 28-a]
2 µg/mL
CCCOc1cc(Cc2cnc(N)nc2N)cc(OCCC)c1-c1cccc(N)c1 [Example 51-]
8 µg/mL
CCOc1cc(Cc2cnc(N)nc2N)cc(OS(=O)(=O)N(C)C2CC2)c1-c1ccc(N)c(F)c1 [Example 28-c]
2 µg/mL
CCOc1cc(Cc2cnc(N)nc2N)cc(OCC)c1-c1ccc(C)cc1 [Example 02-q]
4 µg/mL
CCOc1cc(Cc2cnc(N)nc2N)cc(OCC)c1-c1cc(N)cc(F)c1 [Example 04-t]
8 µg/mL
CCOc1cc(Cc2cnc(N)nc2N)cc(OC2CCC(C#N)C2)c1-c1ccc(O)cc1 (centres unmarked) [Example 08-x]
8 µg/mL

Next, consider the following compound.
[Q] GET /values?readout=MIC&system=Staphylococcus aureus 101&item= CCOc1cc(Cc2cnc(N)nc2N)cc(OC2CCC2)c1-c1ccc(O)cc1 [Example 08-k]
[A] 4 µg/mL

---

System: Streptococcus pneumoniae 1/1
Assay: MIC against Streptococcus pneumoniae 1/1
Format: cell-based
Details: Table 2; Streptococcus pneumoniae 1/1, trimethoprim- and penicillin-resistant, serotype 6; clinical isolate; read-out: MIC Sp1/1
measured parameter: MIC (µg/mL)
Give bare numbers, in µg/mL.

Please supply MIC for each of the following items, keeping them in order.
1. CCOc1cc(Cc2cnc(N)nc2N)cc(OCCc2scnc2C)c1-c1ccc(O)cc1 [Example 08-q]
2. CCOc1cc(Cc2cnc(N)nc2N)cc(OS(=O)(=O)CC2CC2)c1-c1ccc(N)c(C)c1 [Example 38-c]

[A]
[8, 0.5]

Hello, I would appreciate it if you could give MIC for each entry below.
1. CCOc1cc(Cc2cnc(N)nc2N)cc(OS(=O)(=O)c2ccc(OC)c(F)c2)c1-c1ccc(O)cc1 [Example 15-j]
2. CCOc1cc(Cc2cnc(N)nc2N)cc(OCC)c1-c1ccc2c(c1)NCCO2 [Example 02-h]
3. CCOc1cc(Cc2cnc(N)nc2N)cc(OS(=O)(=O)N(C)CC)c1-c1ccc(C)c(N)c1 [Example 31-b]
4. CCOc1cc(Cc2cnc(N)nc2N)cc(OCC)c1-c1ccc(OC)cc1 [Example 05-b]

[A]
1: 1; 2: 4; 3: 1; 4: 4
